What pEC50 was measured for each of the following?
Target: T1, human EGFRvIII-hFc protein (human, UniProt P00533 25-645)
T1 construct: extracellular domain; also called immunogen A; hFc-tagged EGFRvIII protein; not shown: human IgG Fc fragment (hFc) of the pCpC vector
Experiment: ELISA, EGFRvIII-hFc coated
Numbers only, as −log10 of the molar value.

Some solved entries appear below for comparison.
1. Humanized antibody h75G7C6-15 (antibody, human IgG1, V domains shown, also called VH-g2/VL-g2) VH: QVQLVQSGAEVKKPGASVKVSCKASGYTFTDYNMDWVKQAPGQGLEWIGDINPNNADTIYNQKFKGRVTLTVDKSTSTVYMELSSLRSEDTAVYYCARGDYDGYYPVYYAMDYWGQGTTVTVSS VL: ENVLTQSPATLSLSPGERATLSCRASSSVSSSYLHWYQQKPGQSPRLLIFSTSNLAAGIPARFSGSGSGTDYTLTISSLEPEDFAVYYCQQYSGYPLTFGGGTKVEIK	9.54
2. Humanized antibody h75G7C6-11 (antibody, human IgG1, V domains shown, also called VH-g1/VL-g2) VH: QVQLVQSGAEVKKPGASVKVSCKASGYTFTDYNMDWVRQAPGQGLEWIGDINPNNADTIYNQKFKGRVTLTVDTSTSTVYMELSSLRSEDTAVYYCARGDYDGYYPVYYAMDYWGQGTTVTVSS VL: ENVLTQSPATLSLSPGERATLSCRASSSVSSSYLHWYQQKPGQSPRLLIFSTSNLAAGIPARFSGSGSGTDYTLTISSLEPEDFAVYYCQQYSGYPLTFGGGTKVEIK	9.17

Now for a further binder.
Quick check: pEC50 of Humanized antibody h63A10A7-21 (antibody, human IgG1, V domains shown, also called VH-g8/VL-g4) VH: QVQLVQSGAEVKKPGASVKVSCKASGYTFISFTMHWVKQRPGQGLEWIGYINPNSGYTKYNQKFKDRVTLTRDTSTSTVYMELSSLRSEDTAVYYCTRGGGRGFAYWGQGTLVTVSS VL: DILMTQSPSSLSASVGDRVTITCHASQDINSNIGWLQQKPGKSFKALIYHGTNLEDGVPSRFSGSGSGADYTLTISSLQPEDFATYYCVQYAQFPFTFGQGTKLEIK ?
9.77

meta.source: patent US20210032351A1
